// reported pKd for each item listed
Target: T1, wild type BMP6 homodimer (Homo sapiens (Human), UniProt P22004 375-513, N-linked glycan at N80 (CHO-produced))
T1 construct: Produced in CHO cells; also called WT BMP6; BMP6/6
T1 sequence: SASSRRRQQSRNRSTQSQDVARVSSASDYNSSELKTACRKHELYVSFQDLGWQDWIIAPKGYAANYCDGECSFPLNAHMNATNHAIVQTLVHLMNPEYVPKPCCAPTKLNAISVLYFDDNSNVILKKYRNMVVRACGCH
Experiment: BLI (Octet), receptor-Fc on anti-human IgG tips
Method: The Octet QK analysis was performed at […] in TBS with 0.1% Tween-20. Samples were agitated at 1000 rpm. […] Each BMP was prepared as a sevenfold serial dilution (typically 200-3 nM in singlicate) plus buffer blanks. […] Association was monitored for 10 min and dissociation was followed for […] into buffer alone. Kinetic parameters (kon and koff) and affinities (KD) were calculated using the Octet Data Analysis software 6.0 using a partial binding 1:1 model following manufacturer's instructions.
The read-out pKd is expressed as -log10 of concentration in moles per litre.

# count of solved cases: 3
[[record]]
binder = "BMPRII receptor-human-IgG1-Fc fusion protein (Fc fusion, UniProt Q13873 27-150, looked up, extracellular domain; See note of m11; also called BMPR IIA; BMPRIIA; not shown: human IgG1 Fc) SQNQERLCAFKDPYQQDLGIGESRISHENGTILCSKGSTCYGLWEKSKGDINLVKQGCWSHIGDPQECHYEECVVTTTPPSIQNGTYRFCCCSTDLCNVNFTENFPPPDTTPLSPPHSFNRDET"
reported_endpoint = "pKd"
assay_result = 8.40

[[record]]
binder = "ActRIIB receptor-human-IgG1-Fc fusion protein (Fc fusion, UniProt Q13705 19-137, looked up, extracellular domain; See note of m11; also called ATRIIB; not shown: human IgG1 Fc) SGRGEAETRECIYYNANWELERTNQSGLERCEGEQDKRLHCYASWRNSSGTIELVKKGCWLDDFNCYDRQECVATEENPQVYFCCCEGNFCNERFTHLPEAGGPEVTYEPPPTAPTLLT"
reported_endpoint = "pKd"
assay_result = 9.30

[[record]]
binder = "ALK6 receptor-human-IgG1-Fc fusion protein (Fc fusion, UniProt O00238 14-126, looked up, extracellular domain; See note of m11; also called BMPRIb; not shown: human IgG1 Fc) KKEDGESTAPTPRPKVLRCKCHHHCPEDSVNNICSTDGYCFTMIEEDDSGLPVVTSGCLGLEGSDFQCRDTPIPHQRRSIECCTERNECNKDLHPTLPPLKNRDFVDGPIHHR"
reported_endpoint = "pKd"
assay_result = 7.70


Note: attention shifts to another entry.
Please give the measured pKd for this binder: ALK3 receptor-human-IgG1-Fc fusion protein (Fc fusion, UniProt P36894 24-152, looked up, extracellular domain; See note of m11; also called BMPRIa; not shown: human IgG1 Fc) QNLDSMLHGTGMKSDSDQKKSENGVTLAPEDTLPFLKCYCSGHCPDDAINNTCITNGHCFAIIEEDDQGETTLASGCMKYEGSDFQCKDSPKAQLRRTIECCRTNLCNQYLQPTLPPVVIGPFFDGSIR
7.96
